Tested on: FAAH
Test: serine hydrolase off-target inhibition in mouse brain, late-stage follow-up, selectivity assay for DAGLb inhibitor project, biochemical, gel-based competitive ABPP, mouse brain membrane, set 3 (AID 602321)
Conditions: gel-based competitive ABPP fluorescence, inhibition, at 1 µM, stronger effect = higher value
RECORDED_ENDPOINT: inhibition (%)
# value in %; strip the unit string

// solved cases for inhibition follow
O=C(O)c1cccc(-c2ccc(-c3cn(C(=O)N4CCCCC4CCc4ccccc4)nn3)cc2)c1 (centres undefined): 15
O=C(N1CCCCC1c1ccccc1)n1cc(-c2ccc(-c3ccccc3CO)cc2)nn1 (centres undefined): 15
O=C(O)c1ccc(-c2ccc(-c3cn(C(=O)N4CCCCC4CCc4ccccc4)nn3)cc2)cc1 (centres undefined): 0

// below: inhibition requested for another compound
Data request: Given O=C(c1ccc(-c2ccc(-c3cn(C(=O)N4CCCCC4c4ccccc4)nn3)cc2)cc1)N1CCCCC1 (centres undefined) , state its recorded inhibition.
Data returned: 10
